Data origin: patent US7351731B2

Test system: C. albicans ATCC 14053
Assay: MIC microdilution susceptibility testing, C. albicans in RPMI
Type: cell-based, Candida albicans
Conditions: Candida albicans, ATCC14053; RPMI medium pH 6.9, 35-37° C., 24-48 h, average of three experiments; read-out: MIC C. albicans ATCC 14053, RPMI
measure: MIC

- CCCCCCCCCC(=O)O [Decanoic acid, reference compound]: 791 µg/mL
- Cc1ccc(S(=O)(=O)C(Cn2cncn2)(Cn2cncn2)c2ccc(F)cc2F)cc1 [Tosyl]: 365 µg/mL
- CCCC(Br)C(=O)O (stereo not shown) [2-Bromovaleric acid, reference compound]: ≥ 578 µg/mL
- CC(Br)C(=O)Cl (stereo not shown) [2-Bromopropionyl chloride, reference compound]: 468 µg/mL
- CC(=O)O [Acetic acid, reference compound]: ≥ 220 µg/mL
- CCCCCCCCCCCCCC(=O)O [Tetradecanoic acid, reference compound]: > 876 µg/mL
- Fc1ccc(C(Cl)(Cn2cncn2)Cn2cncn2)c(F)c1 [Cl]: 1140 µg/mL
